ASSAY: Human HepG2 cell viability assay in 384 well format
Assay type: toxicity, cell-based
Parameters: dose 125 nL, time 70.5 hour; concentration not given beside the values
MEASUREMENT_SETUP: HepG2 cells, read-out: Inhibition
MEASURED_QUANTITY: cytotoxicity at 70.5 h (%)
One number for each entry, in %.

Below, each entry is followed by its recorded cytotoxicity at 70.5 h result.
# COMPOUND, cytotoxicity at 70.5 h / %
rows = [
    ("CCOc1cc(Cl)ccc1CNC(=O)N1CCCC(CO)C1 (stereo not drawn)", -9.17),
    ("CC(=O)c1c(O)n(C)c2ccc(F)cc12", -4.46),
    ("CC(C)c1nn(C)c(N2CCOCC2)c1CNCc1nncn1C", 0.87),
    ("CS(=O)(=O)NC1CCN(C(=O)NCCc2ccccn2)CC1", 13.9),
    ("CNS(=O)(=O)c1ccc(CN2CCCN(CC(C)C)CC2)cc1", -0.0493),
    ("CCCn1ncc(CN(Cc2cccnc2)Cc2ccsc2)c1C", 16.8),
    ("CO[C@@H]1CN(c2ccccc2)S(=O)(=O)[C@@]12CCNC2", 11.6),
    ("CN(Cc1ncnn1C)c1ccnc(Cc2ccccc2)n1", -2.06),
    ("Cc1nn2c(NCC(=O)NC3CC3)cc(-c3ccccc3)nc2c1C", -2.36),
    ("Cc1noc(C)c1C(=O)N1CCCN(C)c2ccc(Cl)cc21", -3.33),
]

Record cytotoxicity at 70.5 h for all entries; do not skip any.
1. CCn1c(Cn2cncn2)nnc1C1CCN(Cc2ccc(C)o2)CC1
2. CCN(C(=O)Cc1ccc(NCc2ncc[nH]2)cc1)c1ccccc1
3. O=C(C1CCCN(C2CCOCC2)C1)N1Cc2ccccc2C1 (stereo not drawn)

1: -8.85; 2: -5.61; 3: 13

Record cytotoxicity at 70.5 h for all entries; do not skip any.
1. COc1ccc(OC)c(C2CCN(C(=O)CCc3n[nH]c(N)n3)C2)c1 (stereo not drawn)
2. CCCNS(=O)(=O)c1cnccc1N1CCN(C(C)C)CC1
3. O=C(C1CCCCC1)N1CCC(c2n[nH]c3nccnc23)CC1
4. CCS(=O)(=O)N1CCc2ccc(NC(=O)Nc3cccc(F)c3)cc21
5. CC(C)c1ncc2c(n1)CN(Cc1cccc(C(N)=O)c1)CC2

1. 12.4
2. 7.02
3. -2.95
4. 33
5. -4.48

* * *

For each record, write down the corresponding cytotoxicity at 70.5 h.
ASSAY: Human HepG2 cell viability assay in 384 well format
Format: toxicity, cell-based
Design: dose 125 nL, time 70.5 hour; concentration not given beside the values
MEASUREMENT_SETUP: HepG2 cells, read-out: Inhibition
One number for each entry, in %.

Below, each entry is followed by its recorded cytotoxicity at 70.5 h result.
# COMPOUND, UNITS_SYMBOL, cytotoxicity at 70.5 h
measured = [
    ("CNC(=O)c1nc(COc2ccc3c(c2)OCO3)no1", "%", -9.82),
    ("CCc1nc(CN(C)CC(=O)OC(C)(C)C)cs1", "%", -4.57),
    ("O=c1cc(N2CCOCC2)cnn1CCc1ccc(F)cc1", "%", -1.15),
    ("O=C(C1COCCO1)N1CCN(CC(F)(F)F)c2ccccc21 (stereo unspecified)", "%", -1.12),
    ("COC(=O)NCC(=O)NCC1(c2c(F)cccc2F)CCCC1", "%", 1.47),
]

Entry under review: COc1cc(CNC2CCc3nc(C)nn3C2)cc2c1OCO2 (stereo unspecified) . Reported cytotoxicity at 70.5 h?
-5.53
